biological target: UP1 (UniProt P09651-2 1-196); test: ITC; 100 mM KCl; ITC/CD: 20 mM Tris pH 8.0, 100 mM KCl, 25 C; NMR: 10 mM potassium phosphate pH 6.5, 100 mM KCl, 298 K (10% D2O for HSQC); conditions: protein: recombinant; tags: C-terminal 6xHis; parallel G4 tetramer of 4 strands, no loops
Sequence (P09651 1-196): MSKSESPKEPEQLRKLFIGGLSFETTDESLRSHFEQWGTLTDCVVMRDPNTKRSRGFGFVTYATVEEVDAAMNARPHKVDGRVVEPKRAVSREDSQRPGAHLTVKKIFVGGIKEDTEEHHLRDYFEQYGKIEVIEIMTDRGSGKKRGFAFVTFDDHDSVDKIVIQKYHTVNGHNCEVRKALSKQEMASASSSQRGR
RESULT_TYPE: Kd (nM)
State just the number; it will be interpreted in nM.

IN: I would be grateful if you could share the reported Kd for UUAGGG (structured_RNA) [TERRA-6] .
OUT: 2020

src = paper PMC7192615
